# target_under_test: T1, human CD73 (huCD73) protein, antigen of the Biacore assay (human, UniProt P21589 27-547, limits assumed)
# T1 construct: also called human CD73 antigen
# T1 sequence (looked up): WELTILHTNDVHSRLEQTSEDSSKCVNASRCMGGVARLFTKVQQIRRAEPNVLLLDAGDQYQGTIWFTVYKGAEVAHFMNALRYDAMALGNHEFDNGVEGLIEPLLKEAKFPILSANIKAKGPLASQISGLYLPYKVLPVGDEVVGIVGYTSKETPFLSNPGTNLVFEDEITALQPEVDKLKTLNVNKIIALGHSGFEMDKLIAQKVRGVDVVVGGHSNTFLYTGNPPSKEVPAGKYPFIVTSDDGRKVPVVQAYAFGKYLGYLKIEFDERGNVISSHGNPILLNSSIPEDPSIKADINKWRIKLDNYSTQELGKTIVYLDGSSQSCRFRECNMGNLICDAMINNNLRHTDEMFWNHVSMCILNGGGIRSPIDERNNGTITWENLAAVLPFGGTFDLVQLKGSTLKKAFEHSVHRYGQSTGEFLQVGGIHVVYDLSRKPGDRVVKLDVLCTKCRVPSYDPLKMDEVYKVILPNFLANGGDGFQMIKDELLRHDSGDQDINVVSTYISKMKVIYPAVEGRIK
# protocol_details: SPR Biacore T200; antibody captured on Protein A chip, CD73 in flow; 1:1 Langmuir
# Excerpt: In this experiment, Biacore instrument was used to determine the affinity of the humanized anti-CD73 antibodies to be tested with human CD73 (huCD73) and monkey CD73 (cynoCD73). A certain amount of test antibody was affinity-captured with Protein A biosensing chip (Cat. #29127556, GE), and then a certain concentration of human or monkey CD73 antigen was allowed to flow through the surface of the chip. […]
I'd be grateful if you could share measured kon for these entries.
# number only, unit M⁻¹ s⁻¹ dropped from output

Data request: Fill in kon for record Hab127.31 (antibody, V domains shown, VL3 + VH1; recombined with human heavy and light constant regions) VH: EVQLVQSGAEVKKPGASVKVSCKASGYTFTAYFMNWVRQAPGQGLEWMGRIYHNNGDTFYSQKFKGRVTMTVDKSTSTVYMELSSLRSEDTAVYYCATSYVGDWGQGTTVTVSS VL: DIQMTQSPSSLSASVGDRVTITCRASQDIGDSLNWLQQKPGGALKRLIYATSSLDSGVPSRFSGSGSGTEYTLTISSLQPEDFATYYCLQYASFPWTFGGGTKVEIK
Data returned: 163000

Data request: Fill in kon for record Hab127.31b (antibody, V domains shown, VL3 + VH1b, HCDR2 hot-spot variant; full-length antibody) VH: EVQLVQSGAEVKKPGASVKVSCKASGYTFTAYFMNWVRQAPGQGLEWMGRIYHNLGDTFYSQKFKGRVTMTVDKSTSTVYMELSSLRSEDTAVYYCATSYVGDWGQGTTVTVSS VL: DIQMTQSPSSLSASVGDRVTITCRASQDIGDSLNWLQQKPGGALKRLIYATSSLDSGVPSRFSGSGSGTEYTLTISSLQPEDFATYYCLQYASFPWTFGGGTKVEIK
Data returned: 220000

Data request: Fill in kon for record Hab127.31e (antibody, V domains shown, VL3 + VH1e, HCDR2 hot-spot variant; full-length antibody) VH: EVQLVQSGAEVKKPGASVKVSCKASGYTFTAYFMNWVRQAPGQGLEWMGRIYHNEGDTFYSQKFKGRVTMTVDKSTSTVYMELSSLRSEDTAVYYCATSYVGDWGQGTTVTVSS VL: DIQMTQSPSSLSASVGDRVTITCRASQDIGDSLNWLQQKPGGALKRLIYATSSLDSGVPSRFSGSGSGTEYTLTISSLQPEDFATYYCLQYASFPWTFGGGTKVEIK
Data returned: 177000

Data request: Fill in kon for record Hab110.35 (antibody, V domains shown, VL3 + VH5; recombined with human heavy and light constant regions) VH: EVQLVQSGAEVKKPGASVKVSCKASGYTFTSYTMHWVKQAPGQGLEWIGYINPNSFYIEYNQKFKDKATLTADTSASTAYMELSSLRSEDTAVYYCARGDYDLFYDMDNWGQGTTVTVSS VL: DIQMTQSPSSLSASVGDRVTITCRASQDIGNSLNWLQQKPGGAIKRLIYATFRLDSGVPSRFSGSRSGTEYTLTISSLQPEDFADYYCQQYASFPWTFGGGTKVEIK
Data returned: 385000

Data request: Fill in kon for record Hab110.24 (antibody, V domains shown, VL2 + VH4; recombined with human heavy and light constant regions) VH: EVQLVQSGAEVKKPGASVKVSCKASGYTFTSYTMHWVRQAPGQRLEWIGYINPNSFYIEYNQKFKDKATLTADTSASTAYMELSSLRSEDTAVYYCARGDYDLFYDMDNWGQGTTVTVSS VL: DIQMTQSPSSLSASVGDRVTITCRASQDIGNSLNWLQQKPGKAIKRLIYATFRLDSGVPSRFSGSRSGTEYTLTISSLQPEDFATYYCQQYASFPWTFGGGTKVEIK
Data returned: 330000

Data request: Fill in kon for record Hab127.43 (antibody, V domains shown, VL4 + VH3; recombined with human heavy and light constant regions) VH: EVQLVQSGAEVKKPGASVKVSCKASGYTFTAYFMNWVMQAPGQGLEWIGRIYHNNGDTFYSQKFKGRATLTVDKSTSTVYMELSSLRSEDTAVYYCATSYVGDWGQGTTVTVSS VL: DIQMTQSPSSLSASVGDRVTITCRASQDIGDSLNWLQQKPGGALKRLIYATSSLDSGVPSRFSGSGSGSDYTLTISSLQPEDFATYYCLQYASFPWTFGGGTKVEIK
Data returned: 239000

Data request: Fill in kon for record Hab127.23 (antibody, V domains shown, VL2 + VH3; recombined with human heavy and light constant regions) VH: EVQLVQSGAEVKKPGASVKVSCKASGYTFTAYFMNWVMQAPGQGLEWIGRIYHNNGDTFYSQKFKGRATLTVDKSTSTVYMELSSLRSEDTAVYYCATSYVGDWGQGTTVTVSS VL: DIQMTQSPSSLSASVGDRVTITCRASQDIGDSLNWLQQKPGKAPKRLIYATSSLDSGVPSRFSGSGSGTEYTLTISSLQPEDFATYYCLQYASFPWTFGGGTKVEIK
Data returned: 166000

Data request: Fill in kon for record Hab127.42 (antibody, V domains shown, VL4 + VH2; recombined with human heavy and light constant regions) VH: EVQLVQSGAEVKKPGASVKVSCKASGYTFTAYFMNWVMQAPGQGLEWMGRIYHNNGDTFYSQKFKGRVTMTVDKSTSTVYMELSSLRSEDTAVYYCATSYVGDWGQGTTVTVSS VL: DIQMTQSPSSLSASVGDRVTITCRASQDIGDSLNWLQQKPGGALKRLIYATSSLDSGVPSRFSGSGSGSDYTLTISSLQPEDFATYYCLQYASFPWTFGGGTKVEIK
Data returned: 238000

Data request: Fill in kon for record Hab127.22 (antibody, V domains shown, VL2 + VH2; recombined with human heavy and light constant regions) VH: EVQLVQSGAEVKKPGASVKVSCKASGYTFTAYFMNWVMQAPGQGLEWMGRIYHNNGDTFYSQKFKGRVTMTVDKSTSTVYMELSSLRSEDTAVYYCATSYVGDWGQGTTVTVSS VL: DIQMTQSPSSLSASVGDRVTITCRASQDIGDSLNWLQQKPGKAPKRLIYATSSLDSGVPSRFSGSGSGTEYTLTISSLQPEDFATYYCLQYASFPWTFGGGTKVEIK
Data returned: 166000

Data request: Fill in kon for record Hab110.34 (antibody, V domains shown, VL3 + VH4; recombined with human heavy and light constant regions) VH: EVQLVQSGAEVKKPGASVKVSCKASGYTFTSYTMHWVRQAPGQRLEWIGYINPNSFYIEYNQKFKDKATLTADTSASTAYMELSSLRSEDTAVYYCARGDYDLFYDMDNWGQGTTVTVSS VL: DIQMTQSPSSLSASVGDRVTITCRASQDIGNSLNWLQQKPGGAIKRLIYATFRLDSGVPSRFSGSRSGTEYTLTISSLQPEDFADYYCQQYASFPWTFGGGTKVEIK
Data returned: 358000
